Here the recorded Wirkung (in %) Venturia inaequalis is given for each entry.
Tested on: Venturia inaequalis
Experiment: Venturia inaequalis protective spray test on apple seedlings
Type: in vivo
Conditions: 160 mg/l Spritzbrühe, infected 2 days after spraying, read on day 13 after infection vs infected untreated control
Protocol: 3 Apfelpflänzchen (verteilt auf 3 Töpfe mit 5 cm Durchmesser) aus Samen der Sorte GOLDIN DELICIOUS wurden im 4- bis 5-Blattstadium mit einer wässerigen Dispersion der Testsubstanz (wie allgemein üblich aufbereitet als Spritzpulver) allseitig gründlich besprüht. Die behandelten Pflanzen wurden anschliessend während 2 Tagen bei 17°C, 70-80%rel. Luftfeuchtigkeit und einer Photoperiode von 14 Stunden weiterkultiviert. Danach erfolgte die Infektion der Apfelsämlinge durch Besprühen mit in dest. […]

{"columns": ["compound", "system name", "Wirkung (in %) Venturia inaequalis"],
 "data": [
  ["CC(CN1CCCCC1)C(O)c1ccc(C(C)(C)C)cc1 (stereo not shown)", "Venturia inaequalis", "93%"],
  ["CC(CN1CCC(=O)CC1)=C(C)c1ccc(C(C)(C)C)cc1", "Venturia inaequalis", "37%"],
  ["CC(Cc1ccc(C(C)(C)CCl)cc1)CN1CC(C)CC(C)C1 (stereo not shown)", "Venturia inaequalis", "87%"],
  ["CCC(C)(C)c1ccc(CC(C)CN2CCC3(CC2)OCCO3)cc1 (stereo not shown)", "Venturia inaequalis", "97%"],
  ["CC(Cc1ccc(C(C)(C)CCl)cc1)CN1CC(C)OC(C)C1 (stereo not shown)", "Venturia inaequalis", "95%"],
  ["CCC(C)(C)c1ccc(C(C)=C(C)CN2CCC(=O)CC2)cc1", "Venturia inaequalis", "98%"],
  ["CC(Cc1ccc(C(C)(C)CCl)cc1)CN1CCCCC1 (stereo not shown)", "Venturia inaequalis", "90%"],
  ["CCC(C)(C)c1ccc(C(C)=C(C)CN2CCC3(CC2)OCCO3)cc1", "Venturia inaequalis", "10%"],
  ["CC(Cc1ccc(C(C)(C)C)cc1)CN1CCC(=O)CC1 (stereo not shown)", "Venturia inaequalis", "10%"],
  ["CC(CN1CCC2(CC1)OCCO2)=C(C)c1ccc(C(C)(C)C)cc1", "Venturia inaequalis", "37%"]
]}
